System: recombinant human NPY2 receptor (Homo sapiens, UniProt P49146)
Construct: expressed in transfected cells; host or cells: HEK 293
Sequence (P49146 1-381): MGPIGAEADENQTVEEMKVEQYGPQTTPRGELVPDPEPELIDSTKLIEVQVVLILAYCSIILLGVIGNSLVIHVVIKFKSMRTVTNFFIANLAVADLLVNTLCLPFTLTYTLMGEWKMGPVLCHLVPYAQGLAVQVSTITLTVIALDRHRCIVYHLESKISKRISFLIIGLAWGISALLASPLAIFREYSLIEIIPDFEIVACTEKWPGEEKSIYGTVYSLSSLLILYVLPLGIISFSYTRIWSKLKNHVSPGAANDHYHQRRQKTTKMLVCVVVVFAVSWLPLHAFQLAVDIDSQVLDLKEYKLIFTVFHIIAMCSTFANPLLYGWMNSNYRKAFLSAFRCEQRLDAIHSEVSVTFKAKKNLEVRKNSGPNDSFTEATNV
Assay Details: cAMP assay, in vitro functional activity on NPY2 receptors
Assay type: cell-based
Assay Conditions: inhibition of Forskolin-induced cAMP in HEK 293 cells overexpressing hNPY2R; average, at least 3 independent tests
Recorded Metric: EC50 (nM)
Provide only the numeric value, understood in nM.

Query string: For recombinant human NPY2 receptor (Homo sapiens, UniProt P49146), provide EC50 of PKPEK(AEEAc-γGlu-CO(CH2)16COOH)PE-Aib-DASPEEWQRYY-Aib-ELRHYLNWLTRQRY-NH2 [Analogue 3] please.
Result string: 0.037

Query string: Lookup: EC50 / recombinant human NPY2 receptor (Homo sapiens, UniProt P49146) / PKPEK(AEEAc-γGlu-CO(CH2)16COOH)PEED-Aib-SPEEWQRYY-Aib-SLRHYLNWLTRQRY-NH2 [Analogue 1]
Result string: 0.041

###

System: human Y5 receptor (hNPY5R) (Homo sapiens, UniProt Q15761)
Sequence (Q15761 whole entry): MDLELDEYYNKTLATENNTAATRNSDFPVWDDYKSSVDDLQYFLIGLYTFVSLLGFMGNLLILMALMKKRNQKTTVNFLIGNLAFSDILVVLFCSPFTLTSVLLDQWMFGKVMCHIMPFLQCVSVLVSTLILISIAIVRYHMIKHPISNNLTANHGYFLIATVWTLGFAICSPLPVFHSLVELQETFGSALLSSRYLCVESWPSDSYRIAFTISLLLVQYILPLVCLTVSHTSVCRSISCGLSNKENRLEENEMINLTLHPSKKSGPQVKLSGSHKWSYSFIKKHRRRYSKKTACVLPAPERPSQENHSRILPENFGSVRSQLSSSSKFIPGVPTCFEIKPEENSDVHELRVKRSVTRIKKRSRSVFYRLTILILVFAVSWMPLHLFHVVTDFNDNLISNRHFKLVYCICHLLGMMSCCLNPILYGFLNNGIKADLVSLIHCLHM
Assay Details: calcium flux (FLIPR) assay, functional activity on human Y5 receptor
Assay Conditions: read-out: hNPY5R EC50, average, at least 3 independent tests
Recorded Metric: pEC50
Quick note: pEC50 means taking -log10 of the concentration in moles per liter.

Query string: Fill in: pEC50 of PKPEK(AEEAc-γGlu-CO(CH2)16COOH)PE-Aib-DASPEEWQRYY-Aib-ELRHYLNWLTRQRY-NH2 [Analogue 3] is ___
Result string: 7.03
